# Test Target: CSNK1G3 (Homo sapiens (Human), UniProt Q9Y6M4)
# Sequence (Q9Y6M4 whole entry): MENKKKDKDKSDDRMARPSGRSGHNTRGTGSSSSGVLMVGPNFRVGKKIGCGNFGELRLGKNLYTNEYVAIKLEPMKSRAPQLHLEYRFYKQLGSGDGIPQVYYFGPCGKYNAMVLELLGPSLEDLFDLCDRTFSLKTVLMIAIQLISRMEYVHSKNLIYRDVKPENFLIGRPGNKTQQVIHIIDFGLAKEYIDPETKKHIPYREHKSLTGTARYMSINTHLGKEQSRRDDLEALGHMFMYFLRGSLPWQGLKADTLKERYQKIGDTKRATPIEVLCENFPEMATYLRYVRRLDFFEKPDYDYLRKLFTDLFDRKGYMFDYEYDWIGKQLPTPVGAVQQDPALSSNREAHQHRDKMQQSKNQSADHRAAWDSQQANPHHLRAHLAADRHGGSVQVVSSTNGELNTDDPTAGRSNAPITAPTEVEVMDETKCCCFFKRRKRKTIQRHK
Attribute Measured: IC50 (nM)
Report only the number, with the unit nM understood.

Request: Provide the documented IC50 with CSNK1G3 (Homo sapiens (Human), UniProt Q9Y6M4) as the system for Nc1ncc(-c2cc([N+](=O)[O-])ccc2F)cc1-c1ccc2c(c1)CCNC2=O
Response: 4.68

---

# Test Target: MST1 (Homo sapiens (Human))
# Sequence (Q13043 whole entry): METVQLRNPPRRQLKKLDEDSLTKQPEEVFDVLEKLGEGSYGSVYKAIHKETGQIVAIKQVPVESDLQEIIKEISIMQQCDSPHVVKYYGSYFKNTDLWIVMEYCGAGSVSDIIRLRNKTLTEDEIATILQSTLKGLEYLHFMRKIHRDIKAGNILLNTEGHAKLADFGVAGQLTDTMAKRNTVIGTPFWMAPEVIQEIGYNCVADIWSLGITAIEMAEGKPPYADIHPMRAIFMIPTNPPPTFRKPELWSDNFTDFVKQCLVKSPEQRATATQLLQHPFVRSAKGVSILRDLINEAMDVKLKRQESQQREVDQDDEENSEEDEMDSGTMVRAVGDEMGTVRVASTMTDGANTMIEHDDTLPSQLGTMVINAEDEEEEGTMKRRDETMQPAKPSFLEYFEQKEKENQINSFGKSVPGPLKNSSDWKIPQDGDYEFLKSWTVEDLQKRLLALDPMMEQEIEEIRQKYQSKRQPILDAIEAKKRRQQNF
# Assay Protocol: KiNativ assay
# Assay type: binding
# Particulars: H929 live cell, read-out: inhibition (10 μM)
# reported inhibition at 10 µM; entries follow
Report only the number, with the unit % understood.

Worked examples, 3 compounds total:
1. Nc1ncc(-c2cccc3ncsc23)cc1-c1ccc2c(c1)CCNC2=O; 89
2. Nc1ncc(-c2cccc([N+](=O)[O-])c2F)cc1-c1ccc2c(c1)CCNC2=O; 95.4
3. Nc1ncc(-c2ccc(NS(=O)(=O)C3CC3)cc2F)cc1-c1ccc2c(c1)CCNC2=O; 96.3

Request: Returns the measured inhibition at 10 µM for the input compound. Input: CN(C1CC1)S(=O)(=O)c1ccc(-c2cnc(N)c(-c3ccc4c(c3)CCNC4=O)c2)c(F)c1
Response: 94.5

Request: Returns the measured inhibition at 10 µM for the input compound. Input: Nc1ncc(-c2ccc(NS(=O)(=O)C3CC3)cc2OC2CCCCC2)cc1-c1ccc2c(c1)CCNC2=O
Response: 96.7

Request: Returns the measured inhibition at 10 µM for the input compound. Input: COc1cc(NS(=O)(=O)C2CC2)ccc1-c1cnc(N)c(-c2ccc3c(c2)CCNC3=O)c1
Response: 97.5

---

# reported inhibition at 10 µM; entries follow
# Test Target: PKCz (Homo sapiens (Human))
# Sequence (Q05513 whole entry): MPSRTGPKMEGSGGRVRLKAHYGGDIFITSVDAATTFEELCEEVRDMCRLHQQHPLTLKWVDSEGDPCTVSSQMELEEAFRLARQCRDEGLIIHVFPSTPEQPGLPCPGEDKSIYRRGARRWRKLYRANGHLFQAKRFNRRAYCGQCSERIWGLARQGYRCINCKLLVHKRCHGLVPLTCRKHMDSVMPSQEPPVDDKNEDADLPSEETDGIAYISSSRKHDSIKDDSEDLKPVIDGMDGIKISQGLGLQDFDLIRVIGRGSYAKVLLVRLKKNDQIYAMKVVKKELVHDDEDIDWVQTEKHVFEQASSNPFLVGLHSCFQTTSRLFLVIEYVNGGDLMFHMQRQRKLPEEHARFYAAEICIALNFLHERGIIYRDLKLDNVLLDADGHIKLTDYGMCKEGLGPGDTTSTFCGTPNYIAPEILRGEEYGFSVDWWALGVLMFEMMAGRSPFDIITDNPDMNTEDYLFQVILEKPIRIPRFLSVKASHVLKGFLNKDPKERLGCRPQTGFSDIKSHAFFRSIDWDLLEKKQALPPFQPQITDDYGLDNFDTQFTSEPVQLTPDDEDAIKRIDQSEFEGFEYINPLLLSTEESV
# Assay Protocol: KiNativ assay
# Type: binding
# Particulars: H929 live cell, read-out: inhibition (10 μM)
Report only the number, with the unit % understood.

Request: Returns the measured inhibition at 10 µM for the input compound. Input: Nc1ncc(-c2cccc3ncsc23)cc1-c1ccc2c(c1)CCNC2=O
Response: 15.5

Request: Returns the measured inhibition at 10 µM for the input compound. Input: Nc1ncc(-c2ccc(NS(=O)(=O)C3CC3)cc2F)cc1-c1ccc2c(c1)CCNC2=O
Response: 2.1

Request: Returns the measured inhibition at 10 µM for the input compound. Input: COc1cc(NS(=O)(=O)C2CC2)ccc1-c1cnc(N)c(-c2ccc3c(c2)CCNC3=O)c1
Response: -1.7

Request: Returns the measured inhibition at 10 µM for the input compound. Input: Nc1ncc(-c2cccc([N+](=O)[O-])c2F)cc1-c1ccc2c(c1)CCNC2=O
Response: 27

Request: Returns the measured inhibition at 10 µM for the input compound. Input: Nc1ncc(-c2ccc(NS(=O)(=O)C3CC3)cc2OC2CCCCC2)cc1-c1ccc2c(c1)CCNC2=O
Response: -12.4

Request: Returns the measured inhibition at 10 µM for the input compound. Input: CN(C1CC1)S(=O)(=O)c1ccc(-c2cnc(N)c(-c3ccc4c(c3)CCNC4=O)c2)c(F)c1
Response: 6.2

---

# reported inhibition at 10 µM; entries follow
# Test Target: p70S6K (Homo sapiens (Human), UniProt P23443)
# Sequence (P23443 whole entry): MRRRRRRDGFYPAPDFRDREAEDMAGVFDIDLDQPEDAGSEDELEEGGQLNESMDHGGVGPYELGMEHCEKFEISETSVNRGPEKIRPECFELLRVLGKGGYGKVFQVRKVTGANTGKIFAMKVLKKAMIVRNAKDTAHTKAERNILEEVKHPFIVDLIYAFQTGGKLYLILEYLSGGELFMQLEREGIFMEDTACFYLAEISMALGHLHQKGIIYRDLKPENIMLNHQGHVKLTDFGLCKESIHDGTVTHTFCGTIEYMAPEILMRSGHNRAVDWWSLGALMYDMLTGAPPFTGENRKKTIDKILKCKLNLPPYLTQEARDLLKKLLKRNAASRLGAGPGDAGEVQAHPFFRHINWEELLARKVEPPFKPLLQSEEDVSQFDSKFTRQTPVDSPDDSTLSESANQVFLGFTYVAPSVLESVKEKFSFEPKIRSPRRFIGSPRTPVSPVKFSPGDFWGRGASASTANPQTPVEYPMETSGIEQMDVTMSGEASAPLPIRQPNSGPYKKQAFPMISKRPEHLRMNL
# Assay Protocol: KiNativ assay
# Assay type: binding
# Particulars: H929 live cell, read-out: inhibition (10 μM)
Report only the number, with the unit % understood.

Worked examples, 5 molecules total:
1) Nc1ncc(-c2ccc(NS(=O)(=O)C3CC3)cc2OC2CCCCC2)cc1-c1ccc2c(c1)CCNC2=O; 11.1
2) Nc1ncc(-c2cccc([N+](=O)[O-])c2F)cc1-c1ccc2c(c1)CCNC2=O; -71.5
3) CN(C1CC1)S(=O)(=O)c1ccc(-c2cnc(N)c(-c3ccc4c(c3)CCNC4=O)c2)c(F)c1; -22.7
4) Nc1ncc(-c2cccc3ncsc23)cc1-c1ccc2c(c1)CCNC2=O; -14.3
5) COc1cc(NS(=O)(=O)C2CC2)ccc1-c1cnc(N)c(-c2ccc3c(c2)CCNC3=O)c1; 2.4

Kindly consider the entry below.
Request: Returns the measured inhibition at 10 µM for the input molecule. Input: Nc1ncc(-c2ccc(NS(=O)(=O)C3CC3)cc2F)cc1-c1ccc2c(c1)CCNC2=O
Response: -21.6

---

# Test Target: UniProt P16591
# Sequence (P16591 whole entry): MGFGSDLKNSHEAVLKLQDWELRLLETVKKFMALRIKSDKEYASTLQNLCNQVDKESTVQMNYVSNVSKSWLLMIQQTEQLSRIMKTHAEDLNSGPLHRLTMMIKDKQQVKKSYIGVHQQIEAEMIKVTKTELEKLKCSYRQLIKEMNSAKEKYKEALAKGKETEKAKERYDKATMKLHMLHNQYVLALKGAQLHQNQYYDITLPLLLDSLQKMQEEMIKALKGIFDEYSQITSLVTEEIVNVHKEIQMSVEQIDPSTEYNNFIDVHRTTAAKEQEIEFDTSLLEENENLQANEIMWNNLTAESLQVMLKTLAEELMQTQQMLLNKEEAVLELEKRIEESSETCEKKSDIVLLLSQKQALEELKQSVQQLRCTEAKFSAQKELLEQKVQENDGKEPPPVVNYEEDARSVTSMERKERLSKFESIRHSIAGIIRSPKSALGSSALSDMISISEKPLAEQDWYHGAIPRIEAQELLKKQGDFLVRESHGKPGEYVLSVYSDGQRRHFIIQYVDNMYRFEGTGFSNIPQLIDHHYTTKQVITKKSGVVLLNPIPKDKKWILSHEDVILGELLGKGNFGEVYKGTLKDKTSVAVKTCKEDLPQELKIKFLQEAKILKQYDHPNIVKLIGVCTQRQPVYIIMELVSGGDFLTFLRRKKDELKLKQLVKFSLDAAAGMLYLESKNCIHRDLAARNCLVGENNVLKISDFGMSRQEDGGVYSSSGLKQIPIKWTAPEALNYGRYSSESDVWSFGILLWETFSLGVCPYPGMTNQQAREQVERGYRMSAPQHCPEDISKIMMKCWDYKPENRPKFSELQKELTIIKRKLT
# Assay Protocol: KiNativ assay
# Format: binding
# Particulars: H929 live cell, read-out: inhibition (10 μM)
# Method: Biochemical IC50s of the compounds of the present disclosure against various kinases were measured in a KiNativ assay. Compounds were screened in duplicate at 10 μM in H929 live cell. IC50 was measured via Mass spectroscopy (MS).
Short version: inhibition at 10 µM at least 20% is 1, less is -1.

Answered examples (3):
1. CN(C1CC1)S(=O)(=O)c1ccc(-c2cnc(N)c(-c3ccc4c(c3)CCNC4=O)c2)c(F)c1 [Compound I-28]; -1
2. COc1cc(NS(=O)(=O)C2CC2)ccc1-c1cnc(N)c(-c2ccc3c(c2)CCNC3=O)c1 [Compound I-50]; -1
3. Nc1ncc(-c2cccc([N+](=O)[O-])c2F)cc1-c1ccc2c(c1)CCNC2=O [Compound I-9]; 1

Request: Is inhibition at 10 µM for Nc1ncc(-c2ccc(NS(=O)(=O)C3CC3)cc2OC2CCCCC2)cc1-c1ccc2c(c1)CCNC2=O [Compound I-65] at or above 20%?
Response: 1

Request: Is inhibition at 10 µM for Nc1ncc(-c2ccc(NS(=O)(=O)C3CC3)cc2F)cc1-c1ccc2c(c1)CCNC2=O [Compound I-51] at or above 20%?
Response: -1

Request: Is inhibition at 10 µM for Nc1ncc(-c2cccc3ncsc23)cc1-c1ccc2c(c1)CCNC2=O [Compound I-13] at or above 20%?
Response: -1

---

# Test Target: TBK1 (Homo sapiens (Human))
# Sequence (Q9UHD2 whole entry): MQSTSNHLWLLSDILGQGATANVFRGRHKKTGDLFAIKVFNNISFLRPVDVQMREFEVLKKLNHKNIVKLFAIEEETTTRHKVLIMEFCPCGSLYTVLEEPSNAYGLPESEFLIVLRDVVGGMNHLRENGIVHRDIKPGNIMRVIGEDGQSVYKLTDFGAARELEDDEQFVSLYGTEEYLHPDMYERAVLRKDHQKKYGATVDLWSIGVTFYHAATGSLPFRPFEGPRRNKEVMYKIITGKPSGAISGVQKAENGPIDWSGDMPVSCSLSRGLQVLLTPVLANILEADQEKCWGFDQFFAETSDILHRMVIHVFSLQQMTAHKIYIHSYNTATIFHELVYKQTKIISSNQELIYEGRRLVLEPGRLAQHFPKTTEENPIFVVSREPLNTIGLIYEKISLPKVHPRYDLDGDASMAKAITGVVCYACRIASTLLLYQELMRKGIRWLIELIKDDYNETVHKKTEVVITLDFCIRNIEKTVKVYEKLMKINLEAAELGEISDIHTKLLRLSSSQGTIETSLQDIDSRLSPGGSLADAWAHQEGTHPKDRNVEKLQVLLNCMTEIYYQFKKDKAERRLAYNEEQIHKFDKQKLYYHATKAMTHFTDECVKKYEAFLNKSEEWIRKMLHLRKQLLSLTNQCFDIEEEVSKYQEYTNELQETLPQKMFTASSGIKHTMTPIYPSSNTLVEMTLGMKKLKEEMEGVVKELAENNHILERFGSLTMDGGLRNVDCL
# Assay Protocol: KiNativ assay
# Assay type: binding
# Particulars: H929 live cell, read-out: inhibition (10 μM)
# reported inhibition at 10 µM; entries follow
Report only the number, with the unit % understood.

Worked examples, 3 compounds total:
1) Nc1ncc(-c2cccc([N+](=O)[O-])c2F)cc1-c1ccc2c(c1)CCNC2=O; 23.7
2) Nc1ncc(-c2cccc3ncsc23)cc1-c1ccc2c(c1)CCNC2=O; -23.1
3) Nc1ncc(-c2ccc(NS(=O)(=O)C3CC3)cc2OC2CCCCC2)cc1-c1ccc2c(c1)CCNC2=O; 74.6

Request: Returns the measured inhibition at 10 µM for the input compound. Input: CN(C1CC1)S(=O)(=O)c1ccc(-c2cnc(N)c(-c3ccc4c(c3)CCNC4=O)c2)c(F)c1
Response: 3.4

Request: Returns the measured inhibition at 10 µM for the input compound. Input: COc1cc(NS(=O)(=O)C2CC2)ccc1-c1cnc(N)c(-c2ccc3c(c2)CCNC3=O)c1
Response: 31.4

Request: Returns the measured inhibition at 10 µM for the input compound. Input: Nc1ncc(-c2ccc(NS(=O)(=O)C3CC3)cc2F)cc1-c1ccc2c(c1)CCNC2=O
Response: 35.8

---

# Test Target: ATR (Homo sapiens (Human), UniProt Q13535)
# Assay Protocol: KiNativ assay
# Format: binding
# Particulars: H929 live cell, read-out: inhibition (10 μM)
Short version: inhibition at 10 µM at least -20% is yes, less is no.

Answered examples (5):
1. COc1cc(NS(=O)(=O)C2CC2)ccc1-c1cnc(N)c(-c2ccc3c(c2)CCNC3=O)c1; yes
2. Nc1ncc(-c2cccc([N+](=O)[O-])c2F)cc1-c1ccc2c(c1)CCNC2=O; yes
3. Nc1ncc(-c2ccc(NS(=O)(=O)C3CC3)cc2OC2CCCCC2)cc1-c1ccc2c(c1)CCNC2=O; yes
4. CN(C1CC1)S(=O)(=O)c1ccc(-c2cnc(N)c(-c3ccc4c(c3)CCNC4=O)c2)c(F)c1; no
5. Nc1ncc(-c2ccc(NS(=O)(=O)C3CC3)cc2F)cc1-c1ccc2c(c1)CCNC2=O; yes

Kindly consider the entry below.
Request: Is inhibition at 10 µM for Nc1ncc(-c2cccc3ncsc23)cc1-c1ccc2c(c1)CCNC2=O at or above -20%?
Response: yes

---

# Test Target: CLK2 (Homo sapiens (Human), UniProt P49760)
# Sequence (P49760 whole entry): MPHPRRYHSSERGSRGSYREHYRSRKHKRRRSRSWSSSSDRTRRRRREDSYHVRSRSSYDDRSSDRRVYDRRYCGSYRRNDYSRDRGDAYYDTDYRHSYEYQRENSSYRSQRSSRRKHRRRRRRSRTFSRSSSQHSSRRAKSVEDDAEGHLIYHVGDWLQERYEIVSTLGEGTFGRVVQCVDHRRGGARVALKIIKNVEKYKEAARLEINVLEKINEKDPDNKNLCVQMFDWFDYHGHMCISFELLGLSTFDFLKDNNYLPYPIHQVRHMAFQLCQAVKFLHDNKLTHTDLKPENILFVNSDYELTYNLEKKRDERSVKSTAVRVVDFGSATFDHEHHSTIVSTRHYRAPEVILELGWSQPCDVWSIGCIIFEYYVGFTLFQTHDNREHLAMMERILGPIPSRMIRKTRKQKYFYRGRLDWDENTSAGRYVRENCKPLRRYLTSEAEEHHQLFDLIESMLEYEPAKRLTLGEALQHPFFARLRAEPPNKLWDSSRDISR
# Assay Protocol: KiNativ assay
# Type: binding
# Particulars: read-out:, H929 live cell
Short version: inhibition at 10 µM at least 20% is y, less is n.

1. Nc1ncc(-c2ccc(NS(=O)(=O)C3CC3)cc2F)cc1-c1ccc2c(c1)CCNC2=O; y
2. COc1cc(NS(=O)(=O)C2CC2)ccc1-c1cnc(N)c(-c2ccc3c(c2)CCNC3=O)c1; n
3. Nc1ncc(-c2cccc([N+](=O)[O-])c2F)cc1-c1ccc2c(c1)CCNC2=O; y
4. CN(C1CC1)S(=O)(=O)c1ccc(-c2cnc(N)c(-c3ccc4c(c3)CCNC4=O)c2)c(F)c1; y

Request: Is inhibition at 10 µM for Nc1ncc(-c2ccc(NS(=O)(=O)C3CC3)cc2OC2CCCCC2)cc1-c1ccc2c(c1)CCNC2=O at or above 20%?
Response: y

Request: Is inhibition at 10 µM for Nc1ncc(-c2cccc3ncsc23)cc1-c1ccc2c(c1)CCNC2=O at or above 20%?
Response: n

The reported numbers originate from patent US10710978B2.
